# method_description: Determination of logD (1-octanol / phosphate buffer pH 7.4)
# Format: physicochemical
# assay_context: 1-octanol/phosphate buffer, pH 7.4, pH 7.4, 1-octanol/phosphate buffer; read-out: Log D, pH 7.4
measure_name: logD

Worked cases, logD given:
INSERT INTO measurements (structure_notation, measure_name, data_value) VALUES
  ('Cn1cnc(/C=C/C(=O)N2CCN(c3nc(OCC45CCCN4CCC5)nc4c3CCN(c3cccc5cccc(Cl)c35)C4)C[C@@H]2CC#N)n1', 'logD', 2.48),
  ('C[C@@H]1CN(C/C=C/C(=O)N2CCN(c3nc(OC[C@@]45CCCN4C[C@H](F)C5)nc4c(F)c(-c5cccc6cccc(Cl)c56)ncc34)C[C@@H]2CC#N)C[C@H](C)O1', 'logD', 3.54),
  ('Cc1c(F)ccc2cccc(-c3ncc4c(N5CCN(C(=O)/C=C/CN6CCOCC6)[C@@H](CC#N)C5)nc(OC[C@@]56CCCN5C[C@H](F)C6)nc4c3F)c12', 'logD', 2.96);

I = N#CC[C@H]1CN(c2nc(OCC34CCCN3CCC4)nc3c2CCN(c2cccc4cccc(Cl)c24)C3)CCN1C(=O)/C=C/CN1CC2COCC(C1)O2
II = Cc1cc(/C=C/C(=O)N2CCN(c3nc(OC[C@@]45CCCN4C[C@H](F)C5)nc4c(F)c(-c5cccc6ccc(F)c(F)c56)ncc34)C[C@@H]2CC#N)nc(C)n1
QUERY: Sorting ascending by logD, which comes first: I or II ? Give the label under which the chosen entry appears.
RESULT: I
(I: 2.1, II: 3.77)

Cited source for all entries: patent US20250129103A1
